For each of the molecules below, state its ΔTm.
System: Human immunodeficiency virus 1
Experiment: Binding affinity to HIV1 cTAR DNA assessed as change in melting temperature by […]
Answers are plain numbers, in °C.

{"columns": ["molecule", "ΔTm [°C]"],
 "data": [
  ["O=C(CCNC(=O)C1CCNCC1)Nc1ccc2c(c1)C(=O)c1ccc(NC(=O)CCNC(=O)C3CCNCC3)cc1C2=O.O=C(O)C(F)(F)F.O=C(O)C(F)(F)F", 1.11]
]}

Please report ΔTm for every entry that follows.
1. NCCC(=O)NCCC(=O)Nc1ccc2c(c1)C(=O)c1ccc(NC(=O)CCNC(=O)CCN)cc1C2=O.O=C(O)C(F)(F)F.O=C(O)C(F)(F)F
2. NCCCC(N)C(=O)NCCC(=O)Nc1ccc2c(c1)C(=O)c1ccc(NC(=O)CCNC(=O)C(N)CCCN)cc1C2=O.O=C(O)C(F)(F)F.O=C(O)C(F)(F)F.O=C(O)C(F)(F)F.O=C(O)C(F)(F)F (stereo not drawn)
3. NC1(C(=O)NCCC(=O)Nc2ccc3c(c2)C(=O)c2ccc(NC(=O)CCNC(=O)C4(N)CCNCC4)cc2C3=O)CCNCC1.O=C(O)C(F)(F)F.O=C(O)C(F)(F)F.O=C(O)C(F)(F)F.O=C(O)C(F)(F)F
4. NCCC(N)C(=O)NCCC(=O)Nc1ccc2c(c1)C(=O)c1ccc(NC(=O)CCNC(=O)C(N)CCN)cc1C2=O.O=C(O)C(F)(F)F.O=C(O)C(F)(F)F.O=C(O)C(F)(F)F.O=C(O)C(F)(F)F (stereo not drawn)
5. NCC(N)C(=O)NCCC(=O)Nc1ccc2c(c1)C(=O)c1ccc(NC(=O)CCNC(=O)C(N)CN)cc1C2=O.O=C(O)C(F)(F)F.O=C(O)C(F)(F)F.O=C(O)C(F)(F)F.O=C(O)C(F)(F)F (stereo not drawn)
6. NCC1CCC(C(=O)NCCC(=O)Nc2ccc3c(c2)C(=O)c2ccc(NC(=O)CCNC(=O)C4CCC(CN)CC4)cc2C3=O)CC1.O=C(O)C(F)(F)F.O=C(O)C(F)(F)F (stereo not drawn)
7. NCCCCC(N)C(=O)NCCC(=O)Nc1ccc2c(c1)C(=O)c1ccc(NC(=O)CCNC(=O)C(N)CCCCN)cc1C2=O (stereo not drawn)

[2.14, 13.8, 2.14, 10.5, 1.92, 1.86, 2.14]

* * *

Test system: Nucleic Acid
Test: Binding affinity to HIV1 TAR RNA assessed as change in melting temperature by […]
Format: nucleic-acid assay
Settings: Human immunodeficiency virus 1
measuredProperty: ΔTm (°C)
One number for each entry, in °C.

{"columns": ["compound", "ΔTm / °C"],
 "data": [
  ["NCC(N)C(=O)NCCC(=O)Nc1ccc2c(c1)C(=O)c1ccc(NC(=O)CCNC(=O)C(N)CN)cc1C2=O.O=C(O)C(F)(F)F.O=C(O)C(F)(F)F.O=C(O)C(F)(F)F.O=C(O)C(F)(F)F (stereo not drawn)", 2.38],
  ["NCCCC(N)C(=O)NCCC(=O)Nc1ccc2c(c1)C(=O)c1ccc(NC(=O)CCNC(=O)C(N)CCCN)cc1C2=O.O=C(O)C(F)(F)F.O=C(O)C(F)(F)F.O=C(O)C(F)(F)F.O=C(O)C(F)(F)F (stereo not drawn)", 16.2]
]}

Now for another entry.
ΔTm measured on "NC1(C(=O)NCCC(=O)Nc2ccc3c(c2)C(=O)c2ccc(NC(=O)CCNC(=O)C4(N)CCNCC4)cc2C3=O)CCNCC1.O=C(O)C(F)(F)F.O=C(O)C(F)(F)F.O=C(O)C(F)(F)F.O=C(O)C(F)(F)F" = 2.23

Value source: ChEMBL document CHEMBL3132768
